# system under test: recombinant AaDBR2 (artemisinic aldehyde double bond reductase) (Artemisia annua, UniProt C5H429, A226G/L231G/N16K)
# Construct: This ORF encodes a 415-amino acid protein with a predicted molecular mass of 45.6 kDa; made in house; host or cells: E. coli Rosetta 2(DE3)
# Sequence (C5H429 other isoform, or with tags, fused parts or gaps N16K/A226G/L231G): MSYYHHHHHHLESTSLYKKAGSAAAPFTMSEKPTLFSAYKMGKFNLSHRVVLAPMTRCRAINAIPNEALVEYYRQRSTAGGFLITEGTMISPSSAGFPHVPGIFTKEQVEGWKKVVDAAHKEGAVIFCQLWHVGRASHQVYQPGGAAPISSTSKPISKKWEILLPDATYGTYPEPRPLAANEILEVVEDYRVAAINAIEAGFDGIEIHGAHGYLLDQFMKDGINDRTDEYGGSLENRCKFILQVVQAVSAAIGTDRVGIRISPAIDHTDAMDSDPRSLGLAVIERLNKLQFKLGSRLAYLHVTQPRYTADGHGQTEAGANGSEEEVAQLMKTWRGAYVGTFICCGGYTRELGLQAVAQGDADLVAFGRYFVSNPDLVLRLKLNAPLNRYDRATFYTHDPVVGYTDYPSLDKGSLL
# assay method text: In vitro enzyme assays of recombinant AaDBR2 with potential substrates, GC/MS analysis
# Type: biochemical
# assay conditions: tested as potential substrate, with NADPH, GC/MS
value type: activity of AaDBR2 on the substance as substrate

C=C1C(=O)CC2(C(C)C)CC12 (centres unmarked); No activity was detected
C=C(CO)[C@@H]1CC[C@@H](C)[C@@H]2CCC(C)=C[C@@H]21; No activity was detected
COc1cc(/C=C/C=O)ccc1O; No activity was detected
CC(C)=C1CC[C@@H](C)CC1=O [(+)-pulegone]; No activity was detected
